Source listed as patent US20220033483A1.

Target: T1, cTnI quality control product recombinant protein (human, UniProt P19429 1-210, limits assumed)
T1 construct: the assay paragraphs only say cTnI; also called cardiac troponin I; cTnI antigen
T1 sequence (P19429 whole entry): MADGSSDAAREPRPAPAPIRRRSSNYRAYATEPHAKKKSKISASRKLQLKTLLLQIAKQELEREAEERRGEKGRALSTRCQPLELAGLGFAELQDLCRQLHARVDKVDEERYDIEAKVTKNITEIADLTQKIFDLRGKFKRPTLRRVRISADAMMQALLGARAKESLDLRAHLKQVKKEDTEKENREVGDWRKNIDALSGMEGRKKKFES
Assay: AMC biosensor, antibody on sensor
# koff per entry
# number only, unit s⁻¹ dropped from output

## Task Please give the measured koff for this binder: Mutation 1-55 (antibody, V domains shown, T0002 combination 56 prints L/L) VH: QVQLQQSGTELAKPGASVKFSCKASGYTFSTYWMYWIKQRPGQGLEWIGYLNPSSGHTDYNQKFKDKATLTADKSSSTAYMQLNSLTSEDSAVYYCARKYYGPFGMDYWGQGTSVTVSS VL: EIFLTQSPAIMSASPGEKVTMTCSASTTVSYVHWYQQKSGTSPKRWIYDTSKLASGIPVRFSGSGSGTSYSLTISSMEAEDAATYYCQQWSTNPYTFGGGTKLEIKR
## Result 6.36e-05

## Task Field entry: Mutation 1-16 (antibody, V domains shown) VH: QVQLQQSGTELAKPGASVKFSCKASGYTFSTYWMYWIKQRPGQGLEWIGYINPSSGHTDYNQKFKDKATLTADKSSSTAYMQLNSLTSEDSAVYYCARKYYGPFGMDYWGQGTSVTVSS VL: EIFLTQSPAIMSASPGEKVTMTCSASTTVSYVHWYQQKSGTSPKRWLYDTSKIASGIPVRFSGSGSGTSYSLTISSMEAEDAATYYCQQWSTQPYTFGGGTKLEIKR
## Result 6.64e-05

## Task Field entry: Mutation 1-9 (antibody, V domains shown) VH: QVQLQQSGTELAKPGASVKFSCKASGYTFSSYWMYWIKQRPGQGLEWIGYINPSSGHTDYNQRFKDKATLTADKSSSTAYMQLNSLTSEDSAVYYCARKYFGPFGMDYWGQGTSVTVSS VL: EIFLTQSPAIMSASPGEKVTMTCSASSSVSYVHWYQQKSGTSPKRWIYDTSKIASGIPVRFSGSGSGTSYSLTISSMEAEDAATYYCQQWSTQPYTFGGGTKLEIKR
## Result 2.45e-05
